Where do these numbers come from? They come from ChEMBL document CHEMBL1137330.

- assay.comment: Protein binding in rat plasma at 20 uM
- Type: ADME, cell-free
- run.parameters: read-out: PPB (converted)
Recorded fraction unbound at 20 µM values for a group of compounds are listed next.

compound="CC(C)[C@H](N)C(=O)O[C@@H]1[C@@H](CO)O[C@@H](n2ccc(N)nc2=O)[C@]1(C)O.Cl.Cl [VALOPICITABINE DIHYDROCHLORIDE]" result=0.93

Next:
Query: Quick one: fraction unbound at 20 µM for C[C@@]1(O)[C@H](O)[C@@H](CO)O[C@H]1n1ccc(N)nc1=O ?
Reply: 0.95

----------
- assay.comment: Urinary excretion in bile duct cannulated Sprague-Dawley rat at 100 mg/kg, po after 72 hrs
- Type: ADME, organism-based
- Parameters: dose 100 mg/kg, route oral
- run.parameters: urine, read-out: Activity
measure: dose excreted at 72 h (%)
Expressed in %, but write only the number.

Query: Value lookup for dose excreted at 72 h; key = CC(C)C(N)C(=O)O[C@H]1[C@H](CO)O[C@H](n2ccc(N)nc2=O)[14C@@]1(C)O.Cl.Cl (stereo partly specified)
Reply: 29.8

----------
- assay.comment: Half life at pH 7.2
- Format: ADME
- run.parameters: buffer
measure: half-life (h)
Return type: number; implicit unit h.

Query: Which half-life is listed for CC(C)[C@H](N)C(=O)O[C@@H]1[C@@H](CO)O[C@@H](n2ccc(N)nc2=O)[C@]1(C)O.Cl.Cl [VALOPICITABINE DIHYDROCHLORIDE] ?
Reply: 3.9

----------
- assay.comment: Tmax in jugular vein cannulated Sprague-Dawley rat at 100 mg/kg, po
- Type: ADME, organism-based
- Design: dose 100 mg/kg, route oral
- run.parameters: in vivo
measure: Tmax (h)
The answer is to be given in h; state only the numeric part.

Query: # get_value(readout='Tmax', item= CC(C)[C@H](N)C(=O)O[C@@H]1[C@@H](CO)O[C@@H](n2ccc(N)nc2=O)[C@]1(C)O.Cl.Cl [VALOPICITABINE DIHYDROCHLORIDE] )
Reply: 1

----------
- assay.comment: AUC (0-t) in jugular vein cannulated Sprague-Dawley rat at 100 mg/kg, po
- Assay type: ADME, organism-based, Plasma
- Parameters: dose 100 mg/kg, route oral
- run.parameters: Sprague-Dawley, plasma
measure: AUC(0-t) (ng·h/mL)
I only need the number, in ng·h/mL, no unit after it.

Query: Please report the recorded AUC(0-t) for CC(C)[C@H](N)C(=O)O[C@@H]1[C@@H](CO)O[C@@H](n2ccc(N)nc2=O)[C@]1(C)O.Cl.Cl [VALOPICITABINE DIHYDROCHLORIDE] .
Reply: 8950

----------
- assay.comment: Half life in human whole blood
- Format: ADME, organism-based
measure: half-life (min)
// units = min; emit number, no label

Query: Consider the molecule shown here: CC(C)[C@H](N)C(=O)O[C@@H]1[C@@H](CO)O[C@@H](n2ccc(N)nc2=O)[C@]1(C)O.Cl.Cl [VALOPICITABINE DIHYDROCHLORIDE] What is its recorded half-life?
Reply: 40

----------
- assay.comment: Terminal half life in jugular vein cannulated Sprague-Dawley rat at 100 mg/kg, po
- Format: ADME, organism-based
- Design: dose 100 mg/kg, route oral
- run.parameters: in vivo, read-out: beta t1/2 (converted)
measure: half-life (min)
# output: bare number, implied unit min

Query: Can you share its half-life? I mean this compound: CC(C)[C@H](N)C(=O)O[C@@H]1[C@@H](CO)O[C@@H](n2ccc(N)nc2=O)[C@]1(C)O.Cl.Cl [VALOPICITABINE DIHYDROCHLORIDE]
Reply: 38.4
